- System: normal mice
- test-details: Hypercalcemic side effect profile and serum PTH in normal mice
- Type: in vivo, Male C57/BL mice
- stated-conditions: i.p. dosing once daily for 3 consecutive days
readout-name: dose at which compound starts to raise serum Ca
Kindly report the value followed by its unit.

Record excerpt, results attached:
C[C@@H](OCCC(C)(C)O)C1CCC2/C(=C/C=C3C[C@@H](O)C4(CC4)[C@H](O)C3)CCCC21C (stereo partly drawn) :: 0.01 µg/kg
CCC(O)(CC)CCO[C@H](C)C1CCC2/C(=C/C=C3C[C@@H](O)C4(CC4)[C@H](O)C3)CCCC21C (stereo partly drawn) :: 1 µg/kg

Proceed to the following item.
Query :: Report its dose at which compound starts to raise serum Ca with normal mice as the test system: C=C1[C@H](O)CC(=C/C=C2\CCCC3(C)C2CCC3[C@@H](C)OCCCC(O)(CC)CC)C[C@H]1O (stereo partly drawn)
Result :: 0.1 µg/kg

---

Overview of reported dose at which compound starts to raise serum Ca across a group of molecules:
- Test system: normal mice
- test-details: Hypercalcemic side effect profile and serum PTH in normal mice
- Assay type: in vivo, Male C57/BL mice
- stated-conditions: i.p. dosing once daily for 3 consecutive days
// note: answer is a bare numeric in µg/kg

// worked examples, dose at which compound starts to raise serum Ca included
C=C1[C@H](O)CC(=C/C=C2\CCCC3(C)C2CCC3[C@@H](C)OC[C@H](C)C(C)(C)O)C[C@H]1O (stereo partly shown) :: 1
CCC(O)(CC)CCCO[C@H](C)C1CCC2/C(=C/C=C3C[C@@H](O)C4(CC4)[C@H](O)C3)CCCC21C (stereo partly shown) :: 1
C=C1[C@H](O)CC(=C/C=C2\CCCC3(C)C2CCC3[C@@H](C)COc2cccc(C(C)(C)O)c2)C[C@H]1O (stereo partly shown) :: 10

Consider now this further molecule.
Query :: Report dose at which compound starts to raise serum Ca on normal mice for this entry: C=C1[C@H](O)CC(=C/C=C2\CCCC3(C)C2CCC3[C@@H](C)OCCC(O)(CC)CC)C[C@H]1O (stereo partly shown)
Result :: 0.1

---

- Tested on: CD14
- test-details: CD14 expression induction in HL-60 promyelocytic leukemia cells (real-time RT-PCR)
- Type: cell-based
- stated-conditions: Homo sapiens; HL-60 cells, 24 h, mRNA normalized to GAPDH; Table 3 summary, some values average of 3 or more determinations; read-out: CD14 EC50
pEC50: −log10 of the molar value.
Classify as follows. Reported pEC50 greater than or equal to 8: true. Reported pEC50 below: false.

Please review the following examples before continuing.
C=C1[C@H](O)CC(=C/C=C2\CCCC3(C)C2CCC3[C@@H](C)OCCCC(O)(CC)CC)C[C@H]1O (some centres unmarked) :: true
C[C@@H](COc1cccc(C(C)(C)O)c1)[C@H]1CC[C@H]2/C(=C/C=C3C[C@@H](O)C4(CC4)[C@H](O)C3)CCC[C@]12C :: false
CCC(O)(CC)CCO[C@H](C)C1CCC2/C(=C/C=C3C[C@@H](O)C4(CC4)[C@H](O)C3)CCCC21C (some centres unmarked) :: true
C=C1[C@H](O)CC(=C/C=C2\CCCC3(C)C2CCC3[C@@H](C)CSc2cccc(C(C)(C)O)c2)C[C@H]1O (some centres unmarked) :: false

Query :: Textbook exercise: given the entry C[C@@H](CSc1cccc(C(C)(C)O)c1)C1CCC2/C(=C/C=C3C[C@@H](O)C4(CC4)[C@H](O)C3)CCCC21C (some centres unmarked) , state whether its pEC50 is greater than or equal to 8.
Result :: false

---

- Test system: CD14
- test-details: CD14 expression induction in HL-60 promyelocytic leukemia cells (real-time RT-PCR)
- Type: cell-based
- stated-conditions: Homo sapiens; HL-60 cells, 24 h, mRNA normalized to GAPDH; Table 3 summary, some values average of 3 or more determinations; read-out: CD14 EC50
pEC50: −log10 of the molar value.
Param threshold (8) applies to pEC50; output met when value >= threshold, not met when value < threshold.

Solved entries (count: 3):
C=C1[C@H](O)CC(=C/C=C2\CCCC3(C)C2CCC3[C@@H](C)OCCC(O)(CC)CC)C[C@H]1O (stereo partly shown) :: met
C=C1[C@H](O)CC(=C/C=C2\CCC[C@]3(C)[C@@H]([C@H](C)COc4ccccc4)CC[C@@H]23)C[C@H]1O :: not met
C=C1[C@H](O)CC(=C/C=C2\CCCC3(C)C2CCC3[C@@H](C)OC[C@H](C)C(C)(C)O)C[C@H]1O (stereo partly shown) :: met

Query :: Test whether the molecule C[C@@H](OCCC(C)(C)O)C1CCC2/C(=C/C=C3C[C@@H](O)C4(CC4)[C@H](O)C3)CCCC21C (stereo partly shown) records pEC50 of 8 or higher.
Result :: not met

Query :: Could you verify whether the entry CCC(O)(CC)CCCO[C@H](C)C1CCC2/C(=C/C=C3C[C@@H](O)C4(CC4)[C@H](O)C3)CCCC21C (stereo partly shown) shows pEC50 of no less than 8?
Result :: met

Query :: Quick check: does C[C@@H](OC[C@H](C)C(C)(C)O)C1CCC2/C(=C/C=C3C[C@@H](O)C4(CC4)[C@H](O)C3)CCCC21C (stereo partly shown) have pEC50 greater than or equal to 8?
Result :: not met

---

Readings of extinction coefficient for the listed compounds
- test-details: Maximal absorbance wavelength and extinction coefficient (spectrophotometer scan)
- Format: physicochemical
- stated-conditions: 100 μM in 50:50 de-ionized water and ethanol; in M-1·cm-1 (unit assumed)
// return just the number, without any unit appended

C=C1[C@H](O)CC(=C/C=C2\CCCC3(C)C2CCC3[C@@H](C)OCCCC(O)(CC)CC)C[C@H]1O (some centres unmarked) :: 58710
C=C1[C@H](O)CC(=C/C=C2\CCCC3(C)C2CCC3[C@@H](C)CSc2cccc(C(C)(C)O)c2)C[C@H]1O (some centres unmarked) :: 43580
C[C@@H](OCCC(C)(C)O)C1CCC2/C(=C/C=C3C[C@@H](O)C4(CC4)[C@H](O)C3)CCCC21C (some centres unmarked) :: 29550
C=C1[C@H](O)CC(=C/C=C2\CCCC3(C)C2CCC3[C@@H](C)OC[C@H](C)C(C)(C)O)C[C@H]1O (some centres unmarked) :: 48360
C[C@@H](OC[C@H](C)C(C)(C)O)C1CCC2/C(=C/C=C3C[C@@H](O)C4(CC4)[C@H](O)C3)CCCC21C (some centres unmarked) :: 23610
C=C1[C@H](O)CC(=C/C=C2\CCCC3(C)C2CCC3[C@@H](C)OCCC(O)(CC)CC)C[C@H]1O (some centres unmarked) :: 60100

Query :: Return the recorded extinction coefficient value; entry: CCC(O)(CC)CCO[C@H](C)C1CCC2/C(=C/C=C3C[C@@H](O)C4(CC4)[C@H](O)C3)CCCC21C (some centres unmarked)
Result :: 46990

Query :: Give extinction coefficient for CCC(O)(CC)CCCO[C@H](C)C1CCC2/C(=C/C=C3C[C@@H](O)C4(CC4)[C@H](O)C3)CCCC21C (some centres unmarked)
Result :: 23340

Query :: Retrieve extinction coefficient measured for C[C@@H](COc1cccc(C(C)(C)O)c1)[C@H]1CC[C@H]2/C(=C/C=C3C[C@@H](O)C4(CC4)[C@H](O)C3)CCC[C@]12C and print it.
Result :: 49670

Query :: Hello, please tell me recorded extinction coefficient for this one: C=C1[C@H](O)CC(=C/C=C2\CCC[C@]3(C)[C@@H]([C@H](C)COc4ccccc4)CC[C@@H]23)C[C@H]1O
Result :: 26850

Query :: Indicate the recorded extinction coefficient value for this compound: C=C1[C@H](O)CC(=C/C=C2\CCCC3(C)C2CCC3[C@@H](C)COc2cccc(C(C)(C)O)c2)C[C@H]1O (some centres unmarked)
Result :: 25720

---

Entries and their maximal absorbance wavelength
- test-details: Maximal absorbance wavelength and extinction coefficient (spectrophotometer scan)
- Assay type: physicochemical
- stated-conditions: 100 μM in 50:50 de-ionized water and ethanol
Please give a number only; it is taken to be in nm.

Some compounds with known maximal absorbance wavelength results, for comparison:
C=C1[C@H](O)CC(=C/C=C2\CCCC3(C)C2CCC3[C@@H](C)OC[C@H](C)C(C)(C)O)C[C@H]1O (some centres unmarked) :: 253
C=C1[C@H](O)CC(=C/C=C2\CCCC3(C)C2CCC3[C@@H](C)OCCCC(O)(CC)CC)C[C@H]1O (some centres unmarked) :: 253
C=C1[C@H](O)CC(=C/C=C2\CCC[C@]3(C)[C@@H]([C@H](C)COc4ccccc4)CC[C@@H]23)C[C@H]1O :: 254

Query :: Give the reported maximal absorbance wavelength for this compound. CCC(O)(CC)CCO[C@H](C)C1CCC2/C(=C/C=C3C[C@@H](O)C4(CC4)[C@H](O)C3)CCCC21C (some centres unmarked)
Result :: 253

Query :: Please indicate maximal absorbance wavelength recorded for C=C1[C@H](O)CC(=C/C=C2\CCCC3(C)C2CCC3[C@@H](C)COc2cccc(C(C)(C)O)c2)C[C@H]1O (some centres unmarked)
Result :: 254

Query :: Please give the documented maximal absorbance wavelength of CCC(O)(CC)CCCO[C@H](C)C1CCC2/C(=C/C=C3C[C@@H](O)C4(CC4)[C@H](O)C3)CCCC21C (some centres unmarked)
Result :: 253
